Exercise: state measured Rat S9 metabolic stability for each of the compounds provided.
# test: Liver S9 metabolic stability assay, rat
# Format: in vitro ADME
# run.conditions: 3 μM, 60 min
The figure you give is taken to be in % remaining; do not add the unit.

## Task Determine from records and report Rat S9 metabolic stability for CC(C)Oc1ccc(-c2nsc(Nc3ncccc3N(C)C)n2)nc1
## Result 79

## Task Determine from records and report Rat S9 metabolic stability for Cc1cccnc1N(c1nc(-c2ccc(OC(C)C)cn2)ns1)C(C)C
## Result 60

## Task Determine from records and report Rat S9 metabolic stability for Cc1cccnc1N(C)c1nc(-c2ccc(OC(C)C)cn2)ns1
## Result 81

## Task Determine from records and report Rat S9 metabolic stability for Cc1cccnc1Nc1nc(-c2cc(C#N)ccn2)ns1
## Result 78

## Task Determine from records and report Rat S9 metabolic stability for Cc1cccnc1Nc1nc(-c2ccc(OC3CC3)cn2)ns1
## Result 61

## Task Determine from records and report Rat S9 metabolic stability for CC(C)Oc1ccc(-c2nsc(Nc3ncccc3C(C)C)n2)nc1
## Result 82

## Task Determine from records and report Rat S9 metabolic stability for Cc1ccnc(-c2nsc(Nc3ncccc3C(F)(F)F)n2)c1
## Result 61

---

Exercise: state measured logD at 24 h for each of the molecules provided.
# test: LogD measurement (octanol-water)
# Assay type: physicochemical
# run.conditions: pH 7.4; read-out: logD

## Task Determine from records and report logD at 24 h for CC(=O)N(C)c1cc(C(F)(F)F)cnc1Nc1nc(-c2cc(OC(C)C)ccn2)ns1
## Result 3

## Task Determine from records and report logD at 24 h for CNc1cccnc1Nc1nc(-c2ccc(OC(C)C)cn2)ns1
## Result 2.9

## Task Determine from records and report logD at 24 h for CC(=O)N(C)c1cccnc1Nc1nc(-c2ccc(OC(C)C)cn2)ns1
## Result 1.62

## Task Determine from records and report logD at 24 h for Cc1cccnc1N(c1nc(-c2ccc(OC(C)C)cn2)ns1)C(C)C
## Result 3.1

---

# test: LogD measurement (octanol-water)
# Type: physicochemical
# run.conditions: pH 7.4; read-out: logD
Exercise: state measured logD at 24 h for each of the molecules provided.
Simply state the number, no unit and no words.

## Task Determine from records and report logD at 24 h for CC(C)c1cnc(Nc2nc(-c3ncccc3OC3CC3)ns2)cc1C(F)(F)F [Compound 38]
## Result 2.95

## Task Determine from records and report logD at 24 h for CN(C)c1cccnc1Nc1nc(-c2ccc(OC3CC3)cn2)ns1 [Compound 32]
## Result 2.5

## Task Determine from records and report logD at 24 h for Cc1nccnc1Nc1nc(-c2ccc(OC(C)C)cn2)ns1 [Compound 41]
## Result 2.7
